Listing: IC50 of selected molecules
# Subject Of Test: JAK2 (recombinant purified GST-tagged catalytic domain) (Homo sapiens (Human), UniProt O60674)
# Sequence (O60674 849-1124): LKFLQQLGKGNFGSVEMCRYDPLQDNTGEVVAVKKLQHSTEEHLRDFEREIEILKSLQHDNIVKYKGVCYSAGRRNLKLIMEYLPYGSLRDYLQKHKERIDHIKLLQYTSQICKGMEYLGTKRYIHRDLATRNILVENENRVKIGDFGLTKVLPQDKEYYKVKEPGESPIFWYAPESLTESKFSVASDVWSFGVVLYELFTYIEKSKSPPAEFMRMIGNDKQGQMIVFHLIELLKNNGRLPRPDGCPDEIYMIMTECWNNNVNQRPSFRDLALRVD
# Method Description: Jak Biochemical HTRF Assay (JAK2)
# Measurement Setup: [ATP] 8.5 μM

Molecule	IC50
N#CC[C@@]1(n2nc(Nc3ccc(C#N)cc3)c3c(=O)[nH]ccc32)CCOC1 (single isomer, unassigned) [Example 5-239]	16.7 nM
CN(C(C)(C)C(=O)OC(C)(C)C)S(=O)(=O)c1ccc(Nc2nn(C3(CC#N)CCCC3)c3cc[nH]c(=O)c23)cc1 [Example 5-137]	5.85 nM
CCN(C)S(=O)(=O)c1ccc(Nc2nn([C@]3(CC#N)CC[C@@H](C(=O)OC(C)(C)C)OC3)c3cc[nH]c(=O)c23)cc1 [Example 5-92]	0.13 nM
